B1: TPR 5TU (parent)
chain: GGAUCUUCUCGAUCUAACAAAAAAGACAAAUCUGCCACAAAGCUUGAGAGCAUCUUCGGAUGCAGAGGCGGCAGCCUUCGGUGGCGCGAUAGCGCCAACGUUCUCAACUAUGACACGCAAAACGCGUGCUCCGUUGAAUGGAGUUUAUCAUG

variants of: B1; experiment: polymerase ribozyme fitness, log enrichment relative to wild type (log ratio); higher = more active; in vitro selection for triplet polymerase activity
This sample holds only a part of the variants without activity.

variantLabel	resultQualifier	polymerase ribozyme fitness (log ratio)
A66U C87A A106U G143C	≤	-4.2
A60G G94A U102A C123G	=	-1.46
A39C C85U C149U	=	-2.98
A73G C93A U146C	=	-2.15
U45G G59C C99A U151G	≤	-4.2
U6G C63U A89C	=	-0.961
A39C G84A U144A	=	-2.69
C85A C96U G128A	=	-4.19
U31C A40C G94A	=	1.25
C54U A91U	≤	-4.2
A17C A47C G94C	=	-0.464
A20U A73G C79A C96G	≤	-4.2
C35U G59A G83U A98C G128C	=	-3.94
G59A G88U C116G	=	-3.56
U33G U56A A91U C116U	=	-3.95
U55A C76G A138C	≤	-4.2
A52C A97U	=	-1.59
A20C A49C A52C C57U C76A G88A A106G G126C U145G	≤	-4.2
A20C U56A C93A C116A	=	-1.28
G67A G81A A91C A137C U148C	≤	-4.2
U56A A73C G94C	=	-3.51
C18G A37C C93A A115G	=	-4.01
A24C A30C A41U A66U U82C G86U G94U C116A	≤	-4.2
A22C C69U C93A U144A	=	-3.99
A73G C96G C105A U139A	≤	-4.2
A23U A40G C87A G141U	≤	-4.2
G50A A66G	=	-3.75
U4G A40C A49G C96A	=	-3.02
U6C	=	-0.0891
G48C C63U A142G	=	-1.03
A40G A64G G136A	≤	-4.2
A26G C38A A60U A64C C76U	≤	-4.2
C14U A73U U78G C87G A122U C123U	≤	-4.2
A23G G81A A121U G141U	=	-2.76
A52C C99U	=	-1.81
G48C A110C G141U U148G	≤	-4.2
C36U C54G A66C G84U C95A U101G	≤	-4.2
A30G A121U	=	-3.39
A73U C85U G117U	=	-0.841
A12C C85U C116A A122G G143U	≤	-4.2
U55A C75U	=	0.238
C87U G94C	=	-2.05
A40C C57U A60G U61A	=	-2.29
U31A C85U C114U	=	-1.15
C18G C27U A37G A47C U55A G65U C85U	=	-4.19
A24G A30U U31C U101G	=	-3.98
C10G A23C U31G C75U C87G C93A G133U G136U	≤	-4.2
A19U C57U C103G A119G C123A	=	-3.45
A17C G25A G62U G117U	=	-2.71
C10A C54A A91C C105A C129A G143C	≤	-4.2
G50U C79G A98U C99G	≤	-4.2
C35U G141A	=	0.194
A30G G58U C118U	=	-3.95
C35U G59C G81A G83A A110G G133C	≤	-4.2
A16U A39U G84A G92U C103U C149G U151C	≤	-4.2
G59C U78C G83A	=	-0.666
C38U G80C C85U G100U	≤	-4.2
G50A C54U U55A A73G	≤	-4.2
C118G G141A	=	-0.0985
G46C G68A U101G G117U	≤	-4.2
U9A A20C A23U U31G A47C G50U G58A C85U A91C	≤	-4.2
A17G G58A C93U U101G U139A	≤	-4.2
G11U C51U A113U C132A U139G U146A	≤	-4.2
A49U U53A G92U C116A	=	-1.33
A40U G59U C75A C85U U109A	≤	-4.2
A29U C63U C114U	≤	-4.2
G84C C85G	=	-4.03
A20U A29C A30G C54A G67C G80U C93U G94A A97C C99U	≤	-4.2
C51G C96A A147C	=	-3.82
C76G G140U U151G	≤	-4.2
A17G A49U G71C C79A A106U	≤	-4.2
U53C A73G G84A U109G G140C	≤	-4.2
A60C C79U U102A C103A A142G	≤	-4.2
G71C A91U C93U U104G	≤	-4.2
A20U A89U	=	-2.12
A26U C75A U82G G92U G100A A107U U144A	≤	-4.2
U55A C114A	=	-3.44
A47G G84U	=	-1.59
C5G A73U G124A	=	-1.49
A23G G46A U56A C87A G141C	≤	-4.2
U33C C35G C36G G50C G94U	≤	-4.2
A21U C43A U78G G84U C93U C103G A115G	≤	-4.2
G67U A120U	=	-2.15
A19G A91G C95U C125U	=	-4.01
C8G A47C C54G	≤	-4.2
U15C A47C C54U A89U C95G	=	-2.01
C38U A60U C87U C95G U135A	≤	-4.2
C32G A37G C38U U56A A119C	≤	-4.2
A22G U55G C57U G84U C85A	=	-0.696
A30C A64U G65A G70A G84U A91C C103U G136C C149G	≤	-4.2
C27G A39U G74A C87G U102G	≤	-4.2

Measured values drawn from the RNAGym collection of RNA variant scans (doi:10.1073/pnas.2313332121) for this set.
